Answer each item with its documented pIC50.
assayed system: Gag-Pol polyprotein (Human immunodeficiency virus type 1 group M subtype B (isolate HXB2)(HIV-1))
test name: Inhibition of polymerase activity of recombinant HIV1 reverse polymerase assessed as reduction in extension of an 18 nucleotide DNA primer using template/primer and dNTPs incubated for 30 mins
pIC50: −log10 of the molar value.

QUERY: Tell me measured pIC50 for O=c1[nH]c2cc(-c3ccccc3)ccc2c(=O)n1O please.
RESULT: < 5.00

QUERY: Tell me measured pIC50 for Cc1c(C(=O)O)sc2[nH]c(=O)n(O)c(=O)c12 please.
RESULT: < 5.00

QUERY: Tell me measured pIC50 for O=c1[nH]c2scc(-c3ccc(Cl)cc3)c2c(=O)n1O please.
RESULT: < 5.00

QUERY: Tell me measured pIC50 for O=c1[nH]c2cc(-c3ccccc3)sc2c(=O)n1O please.
RESULT: < 5.00

QUERY: Tell me measured pIC50 for O=c1[nH]c2sc(-c3ccccc3)cc2c(=O)n1O please.
RESULT: < 5.00

QUERY: Tell me measured pIC50 for O=c1[nH]c2sccc2c(=O)n1O please.
RESULT: < 5.00

QUERY: Tell me measured pIC50 for Cc1csc2[nH]c(=O)n(O)c(=O)c12 please.
RESULT: < 5.00

QUERY: Tell me measured pIC50 for O=c1[nH]c2cc(-c3ccc(Cl)cc3)ccc2c(=O)n1O please.
RESULT: < 5.00

QUERY: Tell me measured pIC50 for O=c1[nH]c2cc(-c3ccc(Cl)cc3)sc2c(=O)n1O please.
RESULT: < 5.00

QUERY: Tell me measured pIC50 for O=c1[nH]c2cc(-c3ccc(F)cc3)sc2c(=O)n1O please.
RESULT: < 5.00

QUERY: Tell me measured pIC50 for O=C1Cc2cc(-c3ccccc3)ccc2C(=O)N1O please.
RESULT: < 5.00

QUERY: Tell me measured pIC50 for O=c1[nH]c2c(c(=O)n1O)CN(Cc1ccccc1)CC2 please.
RESULT: < 5.00

QUERY: Tell me measured pIC50 for O=c1[nH]c2sc(Cc3ccccc3)cc2c(=O)n1O please.
RESULT: < 5.00

QUERY: Tell me measured pIC50 for O=c1[nH]c2scc(-c3ccccc3)c2c(=O)n1O please.
RESULT: < 5.00

QUERY: Tell me measured pIC50 for Cc1sc2[nH]c(=O)n(O)c(=O)c2c1C please.
RESULT: < 5.00

###

Test system: P4R5
test name: Cytotoxicity in human P4R5 cells assessed as reduction in cell viability by MTS assay
measurement context: P4R5
Answer each item with its documented CC50.
Respond with the bare value in µM.

QUERY: Tell me measured CC50 for O=C1Cc2cc(-c3ccccc3)ccc2C(=O)N1O please.
RESULT: 19

QUERY: Tell me measured CC50 for O=c1[nH]c2cc(-c3ccccc3)sc2c(=O)n1O please.
RESULT: 28

QUERY: Tell me measured CC50 for O=c1[nH]c2cc(-c3ccccc3)ccc2c(=O)n1O please.
RESULT: 6

QUERY: Tell me measured CC50 for O=c1[nH]c2cc(-c3ccc(Cl)cc3)ccc2c(=O)n1O please.
RESULT: 9.9

QUERY: Tell me measured CC50 for O=c1[nH]c2sccc2c(=O)n1O please.
RESULT: 54

QUERY: Tell me measured CC50 for Cc1sc2[nH]c(=O)n(O)c(=O)c2c1C please.
RESULT: 62

QUERY: Tell me measured CC50 for Cc1csc2[nH]c(=O)n(O)c(=O)c12 please.
RESULT: 81

###

Answer each item with its documented IC50.
assayed system: Human immunodeficiency virus type 1 reverse transcriptase (Human immunodeficiency virus 1, UniProt Q72547)
test name: Inhibition of RNH activity of recombinant HIV1 reverse transcriptase RNase H assessed as reduction in internal cleavage of RNA strand using RNA/DNA duplex substrate HTS-1
Respond with the bare value in nM.

QUERY: Tell me measured IC50 for O=c1[nH]c2cc(-c3ccc(Cl)cc3)sc2c(=O)n1O please.
RESULT: 70

QUERY: Tell me measured IC50 for O=c1[nH]c2scc(-c3ccc(Cl)cc3)c2c(=O)n1O please.
RESULT: 40

QUERY: Tell me measured IC50 for O=C1Cc2cc(-c3ccccc3)ccc2C(=O)N1O please.
RESULT: 1300

QUERY: Tell me measured IC50 for O=c1[nH]c2sc(Cc3ccccc3)cc2c(=O)n1O please.
RESULT: 43

QUERY: Tell me measured IC50 for O=c1[nH]c2sccc2c(=O)n1O please.
RESULT: 200

QUERY: Tell me measured IC50 for O=c1[nH]c2cc(-c3ccc(F)cc3)sc2c(=O)n1O please.
RESULT: 200

QUERY: Tell me measured IC50 for Cc1sc2[nH]c(=O)n(O)c(=O)c2c1C please.
RESULT: 100

QUERY: Tell me measured IC50 for O=c1[nH]c2sc(-c3ccccc3)cc2c(=O)n1O please.
RESULT: 84

QUERY: Tell me measured IC50 for Cc1csc2[nH]c(=O)n(O)c(=O)c12 please.
RESULT: 100

QUERY: Tell me measured IC50 for O=c1[nH]c2cc(-c3ccc(Cl)cc3)ccc2c(=O)n1O please.
RESULT: 200

QUERY: Tell me measured IC50 for O=c1[nH]c2scc(-c3ccccc3)c2c(=O)n1O please.
RESULT: 100

QUERY: Tell me measured IC50 for Cc1c(C(=O)O)sc2[nH]c(=O)n(O)c(=O)c12 please.
RESULT: 100

QUERY: Tell me measured IC50 for O=c1[nH]c2cc(-c3ccccc3)ccc2c(=O)n1O please.
RESULT: 200

QUERY: Tell me measured IC50 for O=c1[nH]c2cc(-c3ccccc3)sc2c(=O)n1O please.
RESULT: 100

###

Test system: Human immunodeficiency virus 1
test name: Antiviral activity against HIV1 infected in human P4R5 cells assessed as reduction in viral infection preincubated with cells for 24 hrs followed by viral infection measured after 48 hrs by fluorescence based beta-galactosidase reporter gene based MAGI assay
Format: functional, organism-based
pEC50: −log10 of the molar value.
Threshold rule: pEC50 greater than or equal to 5 is MET; below that, NOT MET.

QUERY: Is the recorded value of pEC50 equal to or greater than 5 for this compound? O=C1Cc2cc(-c3ccccc3)ccc2C(=O)N1O
RESULT: NOT MET

QUERY: Is the recorded value of pEC50 equal to or greater than 5 for this compound? Cc1csc2[nH]c(=O)n(O)c(=O)c12
RESULT: NOT MET

QUERY: Is the recorded value of pEC50 equal to or greater than 5 for this compound? Cc1c(C(=O)O)sc2[nH]c(=O)n(O)c(=O)c12
RESULT: NOT MET

QUERY: Is the recorded value of pEC50 equal to or greater than 5 for this compound? O=c1[nH]c2sccc2c(=O)n1O
RESULT: NOT MET

QUERY: Is the recorded value of pEC50 equal to or greater than 5 for this compound? O=c1[nH]c2scc(-c3ccccc3)c2c(=O)n1O
RESULT: NOT MET

QUERY: Is the recorded value of pEC50 equal to or greater than 5 for this compound? O=c1[nH]c2cc(-c3ccc(Cl)cc3)ccc2c(=O)n1O
RESULT: MET

QUERY: Is the recorded value of pEC50 equal to or greater than 5 for this compound? O=c1[nH]c2cc(-c3ccc(F)cc3)sc2c(=O)n1O
RESULT: NOT MET

QUERY: Is the recorded value of pEC50 equal to or greater than 5 for this compound? O=c1[nH]c2sc(-c3ccccc3)cc2c(=O)n1O
RESULT: NOT MET

QUERY: Is the recorded value of pEC50 equal to or greater than 5 for this compound? O=c1[nH]c2sc(Cc3ccccc3)cc2c(=O)n1O
RESULT: NOT MET

QUERY: Is the recorded value of pEC50 equal to or greater than 5 for this compound? O=c1[nH]c2cc(-c3ccccc3)ccc2c(=O)n1O
RESULT: MET

QUERY: Is the recorded value of pEC50 equal to or greater than 5 for this compound? O=c1[nH]c2cc(-c3ccc(Cl)cc3)sc2c(=O)n1O
RESULT: NOT MET

###

assayed system: Human immunodeficiency virus type 1 integrase (Human immunodeficiency virus 1)
Sequence (Q7ZJM1 whole entry): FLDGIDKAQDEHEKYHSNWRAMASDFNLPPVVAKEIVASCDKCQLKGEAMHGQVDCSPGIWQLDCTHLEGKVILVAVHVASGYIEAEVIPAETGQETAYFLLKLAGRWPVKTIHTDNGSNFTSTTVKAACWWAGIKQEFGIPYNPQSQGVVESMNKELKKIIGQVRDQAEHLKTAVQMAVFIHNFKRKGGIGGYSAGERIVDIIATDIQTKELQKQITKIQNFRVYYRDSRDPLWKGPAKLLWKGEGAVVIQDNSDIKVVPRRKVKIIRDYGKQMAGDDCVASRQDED
# note: exactly 8 µM is not below, so it is false; use true for IC50 strictly under it

QUERY: Answer whether the compound O=c1[nH]c2scc(-c3ccccc3)c2c(=O)n1O has IC50 strictly less than 8 µM
RESULT: true

QUERY: Answer whether the compound Cc1sc2[nH]c(=O)n(O)c(=O)c2c1C has IC50 strictly less than 8 µM
RESULT: false

QUERY: Answer whether the compound O=c1[nH]c2scc(-c3ccc(Cl)cc3)c2c(=O)n1O has IC50 strictly less than 8 µM
RESULT: true

QUERY: Answer whether the compound Cc1csc2[nH]c(=O)n(O)c(=O)c12 has IC50 strictly less than 8 µM
RESULT: false

QUERY: Answer whether the compound O=c1[nH]c2sccc2c(=O)n1O has IC50 strictly less than 8 µM
RESULT: false

QUERY: Answer whether the compound O=c1[nH]c2cc(-c3ccc(Cl)cc3)sc2c(=O)n1O has IC50 strictly less than 8 µM
RESULT: false

QUERY: Answer whether the compound O=c1[nH]c2cc(-c3ccc(F)cc3)sc2c(=O)n1O has IC50 strictly less than 8 µM
RESULT: false

QUERY: Answer whether the compound O=c1[nH]c2cc(-c3ccccc3)ccc2c(=O)n1O has IC50 strictly less than 8 µM
RESULT: false

QUERY: Answer whether the compound O=c1[nH]c2sc(Cc3ccccc3)cc2c(=O)n1O has IC50 strictly less than 8 µM
RESULT: true

QUERY: Answer whether the compound O=c1[nH]c2cc(-c3ccccc3)sc2c(=O)n1O has IC50 strictly less than 8 µM
RESULT: true

QUERY: Answer whether the compound O=c1[nH]c2sc(-c3ccccc3)cc2c(=O)n1O has IC50 strictly less than 8 µM
RESULT: true

QUERY: Answer whether the compound O=c1[nH]c2c(c(=O)n1O)CN(Cc1ccccc1)CC2 has IC50 strictly less than 8 µM
RESULT: false

QUERY: Answer whether the compound O=C1Cc2cc(-c3ccccc3)ccc2C(=O)N1O has IC50 strictly less than 8 µM
RESULT: true
